Let's look at some compounds and their measured inhibition at 10 µM.
- Measured target: His-hMAGL (recombinant polyhistidine tagged human MAGL protein) (Homo sapiens)
- Construct: made in house; host or cells: E. coli BL21(DE3)
- Sequence (Q99685 whole entry): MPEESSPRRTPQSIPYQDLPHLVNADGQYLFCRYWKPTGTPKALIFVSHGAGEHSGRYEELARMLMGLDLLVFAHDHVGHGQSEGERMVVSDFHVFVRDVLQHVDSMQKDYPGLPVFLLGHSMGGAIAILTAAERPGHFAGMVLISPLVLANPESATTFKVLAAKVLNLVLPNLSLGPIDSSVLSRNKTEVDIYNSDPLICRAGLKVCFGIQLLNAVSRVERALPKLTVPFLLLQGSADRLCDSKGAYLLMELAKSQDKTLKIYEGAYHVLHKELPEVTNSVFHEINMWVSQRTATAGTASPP
- Protocol details: Measurement of MAGL inhibitory activity (arachidonic acid production from 2-arachidonylglycerol, RapidFire-mass spectrometry)
- Assay type: biochemical
- Experimental context: MAGL inhibitory rate, test compound 10 μM, 60 min preincubation, 2-arachidonylglycerol substrate
Answer with the value and then the unit.

Answered cases to consult:
* Cc1cc(CO[C@H]2C[C@@H](C(=O)N3CC4(COC(=O)N4)C3)C2)ccc1Cl [Example 357] | 100%
* O=C1CCC2(CN(C(=O)c3cccc(C(F)(F)c4ccccc4)c3)C2)N1 [Example 27] | 94%
* O=C1NC2(CO1)CN(C(=O)c1sc3c(Cl)c(OC(F)F)cc(F)c3c1Cl)C2 [Example 303] | 100%
* O=C1CCC2(CN(C(=O)c3ccc(-c4cc(C(F)(F)F)cc(C(F)(F)F)c4)cc3)C2)N1 [Example 48] | 98%
* O=C1CCC2(CN(C(=O)c3ccc(-c4ccccc4)cc3F)C2)N1 [Example 31] | 84%
* O=C1CCC2(CN(C(=O)c3ccc(-c4c(F)cccc4F)cc3)C2)N1 [Example 76] | 85%

Entry O=C1CCC2(CN(C(=O)c3sc4cc(-c5cccc(F)c5)ccc4c3Cl)C2)N1 [Example 37] : inhibition at 10 µM on His-hMAGL (recombinant polyhistidine tagged human MAGL protein) (Homo sapiens) = 99%

His-hMAGL (recombinant polyhistidine tagged human MAGL protein) (Homo sapiens) assay, compound O=C1CCC2(CN(C(=O)c3ccc(-c4cccc5c4CCO5)cc3)C2)N1 [Example 75] , recorded inhibition at 10 µM = 90%

inhibition at 10 µM for His-hMAGL (recombinant polyhistidine tagged human MAGL protein) (Homo sapiens) with input O=C1CCC2(CN(C(=O)c3cc4cc(C(F)(F)F)ccc4s3)C2)N1 [Example 33] equals 85%

For O=C1CCC2(CN(C(=O)c3ccc(-c4ccc(OC(F)(F)F)cc4F)cc3)C2)N1 [Example 59] on His-hMAGL (recombinant polyhistidine tagged human MAGL protein) (Homo sapiens), measured inhibition at 10 µM was 97%

Summary: O=C1CCC2(CN(C(=O)N3CCC(Cc4ccc(F)cc4F)CC3)C2)N1 [Example 98] , His-hMAGL (recombinant polyhistidine tagged human MAGL protein) (Homo sapiens), inhibition at 10 µM = 101%

His-hMAGL (recombinant polyhistidine tagged human MAGL protein) (Homo sapiens) inhibition at 10 µM of COc1ccc(-c2ccc(C(=O)N3CC4(CCC(=O)N4)C3)cc2)c(Cl)c1 [Example 85] is 94%

Field inhibition at 10 µM (system: His-hMAGL (recombinant polyhistidine tagged human MAGL protein) (Homo sapiens)) for entry O=C1NC2(CO1)CN(C(=O)c1sc3c(C(F)(F)F)cccc3c1Cl)C2 [Example 257] = 100%

Data origin, for the record: patent US10610520B2
